Target: CCKB receptor (Mus musculus, UniProt P56481)
Construct: The cortex was dissected, weighed and homogenised in 40ml ice-cold buffer; tissue Charles River (supplier of the CD1 mice); host or cells: cerebral cortex membranes of male CD1 mice
Sequence (P56481 1-453): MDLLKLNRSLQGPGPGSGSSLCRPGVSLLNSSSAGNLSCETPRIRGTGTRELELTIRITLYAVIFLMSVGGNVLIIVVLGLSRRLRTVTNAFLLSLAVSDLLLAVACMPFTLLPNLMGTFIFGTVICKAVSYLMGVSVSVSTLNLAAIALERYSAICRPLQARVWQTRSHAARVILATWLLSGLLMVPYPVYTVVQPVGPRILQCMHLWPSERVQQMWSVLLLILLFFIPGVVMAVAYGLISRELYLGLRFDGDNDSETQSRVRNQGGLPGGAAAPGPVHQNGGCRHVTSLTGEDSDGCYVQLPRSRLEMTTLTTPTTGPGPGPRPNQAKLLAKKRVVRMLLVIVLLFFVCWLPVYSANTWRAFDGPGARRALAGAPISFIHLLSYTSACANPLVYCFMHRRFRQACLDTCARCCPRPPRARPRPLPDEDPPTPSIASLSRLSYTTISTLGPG
Assay: CCKB receptor radioligand binding assay in mouse cortical membranes ([125I]-CCK8S)
Conditions: [125I]-CCK8S 200 pM, 150 min at 21±3°, read-out: CCKB pKi (converted)
Hi! Could you tag entries with Ki below 60 nM as satisfied, and those at or above as not satisfied? Much appreciated.

O=C(NCC12CC3CC(CC(C3)C1)C2)c1cc2cc[nH]c2cc1C(=O)N[C@@H](Cc1ccccc1)C(=O)Nc1cccc(-c2nn[nH]n2)c1
satisfied
O=C(O)c1cccc2cccc(C(=O)NCC34CC5CC(CC(C5)C3)C4)c12
not satisfied
O=C(O)c1cc(NC(=O)[C@H](Cc2ccccc2)NC(=O)c2cc3c(cc2C(=O)NCC24CC5CC(CC(C5)C2)C4)[nH]c2ccccc23)cc(C(=O)O)c1
satisfied
O=C(NCC12CC3CC(CC(C3)C1)C2)c1cc2[nH]ccc2cc1C(=O)N[C@@H](Cc1ccccc1)C(=O)Nc1cccc(-c2nn[nH]n2)c1
satisfied

# ---- query compound ----
Task item: Please let me know if "O=C(O)c1cc(NC(=O)[C@H](Cc2cccc(F)c2)NC(=O)c2cc3[nH]cnc3cc2C(=O)NCC23CC4CC(CC(C4)C2)C3)cc(C(=O)O)c1" shows Ki below 60 nM.
Reply: satisfied

###

I'd appreciate it if you could supply CCKA pKi values for the items below.
Target: CCKA (Cavia porcellus, UniProt Q63931)
Construct: The pancreatata were homogenised in 40 ml ice-cold HEPES buffer using a polytron; from tissue; host or cells: pancreas membranes of male Dunkin Hartley guinea-pigs
Sequence (Q63931 1-430): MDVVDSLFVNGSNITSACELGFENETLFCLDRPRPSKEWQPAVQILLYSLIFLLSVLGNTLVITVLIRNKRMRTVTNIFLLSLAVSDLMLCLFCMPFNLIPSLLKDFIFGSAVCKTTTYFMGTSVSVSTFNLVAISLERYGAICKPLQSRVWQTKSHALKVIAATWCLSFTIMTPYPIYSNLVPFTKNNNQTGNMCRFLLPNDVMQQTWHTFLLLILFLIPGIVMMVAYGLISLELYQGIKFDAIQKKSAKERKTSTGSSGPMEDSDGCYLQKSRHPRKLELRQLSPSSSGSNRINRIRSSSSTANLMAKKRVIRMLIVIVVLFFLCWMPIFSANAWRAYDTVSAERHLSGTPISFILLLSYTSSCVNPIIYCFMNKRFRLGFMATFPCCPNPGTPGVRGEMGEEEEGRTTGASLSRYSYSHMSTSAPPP
Test: CCKA radioligand binding assay in guinea-pig pancreas membranes ([125I]-CCK8(S))
Details: PD134,308 present, 150 minutes at 21±3°

Report CCKA pKi for each item below.
1. O=C(NCC12CC3CC(CC(C3)C1)C2)c1cc2[nH]ccc2cc1C(=O)N[C@@H](Cc1ccccc1)C(=O)Nc1cccc(S(=O)(=O)NC(=O)C(F)(F)F)c1
2. O=C(NCC12CC3CC(CC(C3)C1)C2)c1cc2nc[nH]c2cc1C(=O)N[C@@H](Cc1ccccc1)C(=O)Nc1cc(CO)cc(CO)c1
3. O=C(NCC12CC3CC(CC(C3)C1)C2)c1cc2[nH]ccc2cc1C(=O)N[C@@H](Cc1ccccc1)C(=O)Nc1cccc(NS(=O)(=O)C(F)(F)F)c1
4. O=C(O)c1cc(NC(=O)[C@H](Cc2ccccc2)NC(=O)c2ccc3[nH]cnc3c2C(=O)NCC23CC4CC(CC(C4)C2)C3)cc(C(=O)O)c1
5. CC(C)(C)C(=O)OCOC(=O)c1cc(NC(=O)[C@H](Cc2ccccc2)NC(=O)c2cc3ccoc3cc2C(=O)NCC23CC4CC(CC(C4)C2)C3)cc(C(=O)OCOC(=O)C(C)(C)C)c1
6. COC(=O)c1cc(NC(=O)[C@H](Cc2ccccc2)NC(=O)c2cc3ccoc3cc2C(=O)NCC23CC4CC(CC(C4)C2)C3)cc(C(=O)OC)c1

Reply:
1. 5.4
2. 5.6
3. 5.9
4. < 5.0
5. 5.1
6. 5.7
